These measurements were taken from the supplement of paper PMC9112550.

- System: Escherichia coli TOP10;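 also: peptides expressed intracellularly from a pBAD plasmid library in pooled LB shake-flask culture, induced with 0.3% L-arabinose, DNA abundance read by NGS, three biological replicates, DESeq2 with apeglm shrinkage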
- Test Details: shrunken log2 fold change of peptide-encoding DNA abundance (4.5 h post-induction vs induction); higher = less antimicrobial activity (less host growth inhibition)
- Test Conditions: time post-induction: 4.5 h; library: site-saturation at positions 5, 18, 19, 20
Assay Endpoint: shrunken log2 fold change
I'd appreciate a reply containing only the number, no unit.

What shrunken log2 fold change value was documented for this sequence, RRIRKRPPRLPRPRPRPTQGPRP ?
0.909

What shrunken log2 fold change value was documented for this sequence, RRIRNRPPRLPRPRPRPLCLPRP ?
-0.311

What shrunken log2 fold change value was documented for this sequence, RRIRWRPPRLPRPRPRPTHQPRP ?
-0.0304

What shrunken log2 fold change value was documented for this sequence, RRIRCRPPRLPRPRPRPYDSPRP ?
0.00489

What shrunken log2 fold change value was documented for this sequence, RRIRCRPPRLPRPRPRPVDEPRP ?
2.09

What shrunken log2 fold change value was documented for this sequence, RRIRWRPPRLPRPRPRPGGTPRP ?
0.209

What shrunken log2 fold change value was documented for this sequence, RRIRARPPRLPRPRPRPNELPRP ?
0.343

What shrunken log2 fold change value was documented for this sequence, RRIRERPPRLPRPRPRPYFCPRP ?
-0.765

What shrunken log2 fold change value was documented for this sequence, RRIRGRPPRLPRPRPRPWVIPRP ?
-0.257

What shrunken log2 fold change value was documented for this sequence, RRIRERPPRLPRPRPRPESVPRP ?
-0.316

What shrunken log2 fold change value was documented for this sequence, RRIRERPPRLPRPRPRPFWMPRP ?
-0.262

What shrunken log2 fold change value was documented for this sequence, RRIRPRPPRLPRPRPRPRVRPRP ?
0.217

What shrunken log2 fold change value was documented for this sequence, RRIRDRPPRLPRPRPRPDSFPRP ?
-0.00691

What shrunken log2 fold change value was documented for this sequence, RRIRVRPPRLPRPRPRPVYTPRP ?
-0.324

What shrunken log2 fold change value was documented for this sequence, RRIRIRPPRLPRPRPRPTTFPRP ?
-0.688
